- experimental_system: Menin-MLL (Homo sapiens, UniProt O00255)
- Construct: His-Menin (M1-L615 end); purchased BIORTUS BP9210
- Sequence (O00255 1-615 isoform O00255-1): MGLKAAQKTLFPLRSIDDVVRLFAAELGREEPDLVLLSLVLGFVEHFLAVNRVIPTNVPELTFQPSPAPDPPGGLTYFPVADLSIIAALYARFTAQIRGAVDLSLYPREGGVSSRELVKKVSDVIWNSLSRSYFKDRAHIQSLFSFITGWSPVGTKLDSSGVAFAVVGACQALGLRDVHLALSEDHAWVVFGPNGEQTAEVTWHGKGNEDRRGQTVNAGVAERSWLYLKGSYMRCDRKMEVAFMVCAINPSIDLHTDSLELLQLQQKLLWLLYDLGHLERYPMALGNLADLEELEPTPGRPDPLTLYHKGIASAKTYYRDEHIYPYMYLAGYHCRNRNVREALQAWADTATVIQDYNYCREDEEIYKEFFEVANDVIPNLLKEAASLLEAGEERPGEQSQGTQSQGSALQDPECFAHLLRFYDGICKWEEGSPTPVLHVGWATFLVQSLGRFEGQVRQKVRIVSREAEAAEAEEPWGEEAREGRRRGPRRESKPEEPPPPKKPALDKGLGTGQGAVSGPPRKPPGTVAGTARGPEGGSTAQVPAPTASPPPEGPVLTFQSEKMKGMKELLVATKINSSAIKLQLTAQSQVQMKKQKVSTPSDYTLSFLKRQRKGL
- test_description: Inhibitory activity against Menin-MLL binding (fluorescence polarization)
- details: fluorescence polarization; 150 nM His-Menin, 15 nM FITC-MLL; 25°C for 60 min; read-out: Menin-MLL IC50
recorded_metric: IC50 (nM)

compound	result_units	readout_number
CCN(C(=O)c1cc(F)ccc1-c1cc(C2CN([C@@H](CC[C@@H]3COCCN3)C(C)C)C2)cn2c(C)ncc12)C(C)C	nM	34
Cc1nc(F)c2c(-c3ccc(F)cc3C(=O)N3CCOC[C@H]3C)cc(C3CN([C@@H](C)C4CCN(C(=O)CC#N)CC4)C3)cn12	nM	7
Cc1nc(F)c2c(-c3ccc(F)cc3C(=O)N3[C@H](C)COC[C@H]3C)cc(C3CN(CC4CCN(C(=O)c5cncnc5)CC4)C3)cn12	nM	11

[P] CCCC(=O)N1CCC([C@H](C)N2CC(c3cc(-c4ccc(F)cc4C(=O)N4CCOC[C@H]4C)c4c(F)nc(C)n4c3)C2)CC1
[Q] Cc1nc(F)c2c(-c3ccc(F)cc3C(=O)N3CCOC[C@H]3C)cc(C3CN([C@H](CN4CCNCC4)C(C)C)C3)cn12
Hi there, can you help? I need to know whether P or Q has lower measured IC50. Please indicate the selected item by its label.
Q

[a] Cc1nc(F)c2c(-c3ccc(F)cc3C(=O)N3CCOC[C@H]3C)cc(C3CN([C@H](CN4CCN(C(=O)OC(C)(C)C)CC4)C(C)C)C3)cn12
[b] Cc1nc(F)c2c(-c3ccc(F)cc3C(=O)N3CCOC[C@H]3C)cc(C3CN([C@H](CCCN4C[C@H]5C[C@@H]4CO5)C(C)C)C3)cn12
I need your help: which of the pair a , b has higher IC50? Please indicate the selected item by its label.
a

meta.source: patent EP4782453A1
